This collection of values is drawn from ChEMBL document CHEMBL1201862.

Test system: Malme-3M
assay.info: NCI tumour cell line growth inhibition, 48 h
The source made the active and inactive calls. Cut-off read from the data, not from the text of the source: active = GI50 up to about 1.1 µM and inactive = higher.
recorded.endpoint: GI50

- compound: "COc1ccc(C(=O)C/C(=N/NC(N)=S)C(=O)Nc2ccccc2)cc1"
  result.value: "> 100 µM (inactive)"
- compound: "Cc1cc2c(c(C(=O)NCCC(=O)N[C@@H](C)C(=O)OCc3ccccc3)c1)Oc1c(cc(C)cc1C(=O)NCCC(=O)N[C@@H](C)C(=O)OCc1ccccc1)S2"
  result.value: "> 100 µM (inactive)"
- compound: "C=C1C2=C(CCCC2)C(=O)OC12CCCCC2"
  result.value: "51.3 µM (inactive)"
- compound: "C/C(=N/Nc1ccc([N+](=O)[O-])cc1[N+](=O)[O-])C(CC(C(=O)Nc1ccccc1C)/C(C)=N\\Nc1ccc([N+](=O)[O-])cc1[N+](=O)[O-])C(=O)Nc1ccccc1C (centres undefined)"
  result.value: "22.5 µM (inactive)"
- compound: "Clc1nc(Cl)c(-c2ccccc2)c(Cl)n1"
  result.value: "2.02 µM (inactive)"
- compound: "COC(=O)N1CC2(CO)C3CC=C(C(=O)Nc4ccccc4Br)C2C1C3Br (centres undefined)"
  result.value: "> 50 µM (inactive)"
- compound: "CCCCCC/C(CC(=O)CCC(=O)NCCc1ccccc1)=N\\Nc1ccc([N+](=O)[O-])cc1[N+](=O)[O-]"
  result.value: "> 100 µM (inactive)"
- compound: "CS(=O)(=O)OCCN(CCOS(C)(=O)=O)c1ccc(/C=N/c2cccc(Cl)c2)cc1"
  result.value: "12.4 µM (inactive)"
- compound: "CC(=O)N1C(Nc2nccs2)CCN1c1ccccc1 (centres undefined)"
  result.value: "> 10 µM (inactive)"

###

Here, each record is paired with measured GI50 data.
System: IGROV-1
assay.info: NCI tumour cell line growth inhibition, 48 h
The source made the active and inactive calls. Cut-off read from the data, not from the text of the source: active = GI50 up to about 1.1 µM and inactive = higher. Numbered stars: 1 amine (or outer) side, 2 acyl side, 3 side chain; on linkers, the order of the positions; unused ones are H or OH. Square brackets hold non-standard residues; d marks the D form. Peptide text beside a SMILES is read from it. * marks the point of attachment. X30 = CC(=O)N(C)SCC(N[*:1])C(=O)[*:2]; Cbz = O=C(OCc1ccccc1)*; Bn = c1ccc(C*)cc1
recorded.endpoint: GI50

- compound: "N#CC1=C(c2ccccc2)OC2(N)OC(c3ccccc3)=C(C#N)C12C#N (centres undefined)"
  result.value: "> 100 µM (inactive)"
- compound: "CC(C)OC1=C(CC2(C)OCCO2)C(=O)C12OCCO2"
  result.value: "> 100 µM (inactive)"
- compound: "CCCCC1(C)C=C/C(=C2/C(=O)O/C(=C\\C(=O)O)C2=O)O1 (centres undefined)"
  result.value: "> 100 µM (inactive)"
- compound: "O=C(N/N=C1/C(=O)c2c3ccccc3cc3cccc1c23)c1cccc(Cl)c1"
  result.value: "2.78 µM (inactive)"
- compound: "COC1=CC(C2c3cc4c(cc3[C@@H](Nc3ccc(F)cc3)C3COC(=O)[C@H]23)OCO4)=CC(=O)C1=O (some centres undefined)"
  result.value: "14.4 µM (inactive)"
- compound: "COc1cc(C2S/C(=C/c3ccccc3)C(=O)N2c2cccc(Cl)c2)cc(OC)c1OC (centres undefined)"
  result.value: "56.9 µM (inactive)"
- compound: "CC1OC2OC3C(OCC(O)C3O)OC(=O)[C@]34CCC(C)(C)CC3C3=CCC5[C@@]6(C)C[C@H](O)[C@H](OC7OC(CO)C(O)C(O)C7OC7OC(COC(=O)CC(C)(O)CC(=O)OC1C(OC1OC(CO)C(O)C(O)C1O)C2O)C(O)C(O)C7O)[C@@](C)(CO)C6CC[C@@]5(C)[C@]3(C)CC4 (some centres undefined)"
  result.value: "3.9 µM (inactive)"
- compound: "O=C1CN(c2ccccc2)C(=O)CN1NCNN1CC(=O)N(c2ccccc2)CC1=O"
  result.value: "> 100 µM (inactive)"
- compound: "CC(C)OC(=O)c1ccc(NCc2cc(O)ccc2O)cc1"
  result.value: "3.45 µM (inactive)"
- compound: "CCCCCC/C(CC(=O)CCC(=O)NCCc1ccccc1)=N\\Nc1ccc([N+](=O)[O-])cc1[N+](=O)[O-]"
  result.value: "> 100 µM (inactive)"
- compound: "O=S(=O)(c1ccc(I)cc1)N(c1ccccc1)S(=O)(=O)C(F)(F)C(F)(F)C(F)(F)C(F)(F)F"
  result.value: "> 100 µM (inactive)"
- compound: "CCOC(=O)/C(C#N)=C\\C=C1/C=CN=C2NCCN21"
  result.value: "> 100 µM (inactive)"
- compound: "Cc1ccc(NC(=O)c2cc(S(=O)(=O)Nc3n[nH]c(=O)n3-c3ccccc3)c(S)cc2Cl)cc1"
  result.value: "> 100 µM (inactive)"
- compound: "O=C(CC1Sc2ccccc2NC1=O)Nc1ccccc1[N+](=O)[O-] (centres undefined)"
  result.value: "> 100 µM (inactive)"
- compound: "CC(=O)c1c[nH]cc1CO"
  result.value: "> 10 µM (inactive)"
- compound: "CCN(CC)Cc1cc(Nc2c3ccccc3nc3c2[nH]c2ccccc23)ccc1O"
  result.value: "1.16 µM (inactive)"
- compound: "CCOC(=O)C(=CNc1ccc(N(C2=NCC(C)S2)c2ccc(F)c(Cl)c2)cc1)C(=O)OCC (centres undefined)"
  result.value: "20.5 µM (inactive)"
- compound: "Cc1cccc(N2C(=O)C(=O)C(c3nc4ccccc4s3)/C(=N/NC(=S)NN)C2=O)c1C (centres undefined)"
  result.value: "> 100 µM (inactive)"
- compound: "c1ccc2c(c1)nc1n2CSCC1"
  result.value: "> 100 µM (inactive)"
- compound: "CC(=O)N(C)SCC(NC(=O)C(Cc1ccccc1)NC(=O)OCc1ccccc1)C(=O)NC(Cc1ccccc1)C(=O)NC(Cc1c[nH]c2ccccc12)C(=O)NC(CCCCNC(=O)OCc1ccccc1)C(=O)NC(C(=O)NC(CSN(C)C(C)=O)C(=O)NC(C(N)=O)C(C)OCc1ccccc1)C(C)OCc1ccccc1 (centres undefined) (Cbz-F[X30]FWK(Cbz)T(Bn)[X30]T(Bn)-NH2; configuration not given here)"
  result.value: "> 100 µM (inactive)"
- compound: "Cc1ccc(S(=O)(=O)C2CC2(Cl)Cl)cc1 (centres undefined)"
  result.value: "26.9 µM (inactive)"
- compound: "COc1ccc(/[N+]([O-])=C/c2ccc(OC(=S)S)c(OC)c2)cc1"
  result.value: "39.3 µM (inactive)"
- compound: "c1cc2c(cc1C1=NCCN1)c1cc(C3=NCCN3)ccc1n2CC1CCCCC1"
  result.value: "18.2 µM (inactive)"
- compound: "CC(Oc1ccccc1Cl)C(=O)NN1C(=O)CC(=O)N(c2ccccc2)C1=S (centres undefined)"
  result.value: "52.6 µM (inactive)"

###

System: OVCAR-4
assay.info: NCI tumour cell line growth inhibition, 48 h
Calls of active or inactive are those of the source. Cut-off read from the data, not from the text of the source: active = GI50 up to about 1.1 µM and inactive = higher.
Here, each record is paired with measured GI50 data.
recorded.endpoint: GI50

- compound: "NC(=O)c1cc2ccccc2c(/N=N/c2ccccc2)c1O"
  target.system: "OVCAR-4"
  recorded.endpoint: "GI50"
  result.value: "19.4 µM (inactive)"
- compound: "O=[N+]([O-])c1ccc(C2CC(c3ccccc3Cl)=Nc3ccccc3[S+]2[O-])cc1 (stereo not given)"
  target.system: "OVCAR-4"
  recorded.endpoint: "GI50"
  result.value: "2.31 µM (inactive)"
- compound: "O=C1N=C(c2ccccc2)O/C1=C\\c1ccccc1"
  target.system: "OVCAR-4"
  recorded.endpoint: "GI50"
  result.value: "> 100 µM (inactive)"
- compound: "Cc1cc2nc(C#N)c(N3CCN(c4ccc([N+](=O)[O-])cc4)CC3)nc2cc1C"
  target.system: "OVCAR-4"
  recorded.endpoint: "GI50"
  result.value: "73.6 µM (inactive)"
- compound: "Clc1cc(Cl)nc(Nc2ccc3c(c2)CCC3)n1"
  target.system: "OVCAR-4"
  recorded.endpoint: "GI50"
  result.value: "61.2 µM (inactive)"
- compound: "CC(=O)N(CCCCNC(=O)C(F)(F)F)CCCNC(=O)C(F)(F)F"
  target.system: "OVCAR-4"
  recorded.endpoint: "GI50"
  result.value: "> 100 µM (inactive)"
- compound: "CC1=CC[C@@]2(CO)[C@@H]([C@@H]1C)[C@H]1CC[C@@H]3[C@@]4(C)CC[C@H](O)C(C)(C)[C@@H]4CC[C@@]3(C)[C@]1(C)C[C@@H]2O"
  target.system: "OVCAR-4"
  recorded.endpoint: "GI50"
  result.value: "20.8 µM (inactive)"
- compound: "COC(=O)[C@]1(c2cc3ccccc3[nH]2)CC2CNC1C1OC(C)(C)OC21 (stereo not given in full)"
  target.system: "OVCAR-4"
  recorded.endpoint: "GI50"
  result.value: "> 100 µM (inactive)"
- compound: "CSCC[C@@H](NC(=O)[C@H](CC(C)C)NC(=O)C(Cc1cnc[nH]1)NC(=O)CNC(=O)[C@@H](NC(=O)[C@H](C)NC(=O)[C@H](Cc1cn(C=O)c2ccccc12)NC(=O)[C@H](CCC(N)=O)NC(=O)[C@@H](N)CC(N)=O)C(C)C)C(N)=O (stereo not given in full)"
  target.system: "OVCAR-4"
  recorded.endpoint: "GI50"
  result.value: "> 100 µM (inactive)"
- compound: "COc1ccc(C[C@@H]2Cc3cc(OC)c(OC)cc3CN2C)cc1"
  target.system: "OVCAR-4"
  recorded.endpoint: "GI50"
  result.value: "76.4 µM (inactive)"
